Origin of values: patent US20180334496A1

pKd by entry:
- EXPERIMENTAL_TARGET: T1, human complement factor D purified from serum (human, UniProt P00746 26-253)
- T1 construct: serum-purified (CompTech); also called hCFD-Comptech; CFD
- T1 sequence (P00746 26-253): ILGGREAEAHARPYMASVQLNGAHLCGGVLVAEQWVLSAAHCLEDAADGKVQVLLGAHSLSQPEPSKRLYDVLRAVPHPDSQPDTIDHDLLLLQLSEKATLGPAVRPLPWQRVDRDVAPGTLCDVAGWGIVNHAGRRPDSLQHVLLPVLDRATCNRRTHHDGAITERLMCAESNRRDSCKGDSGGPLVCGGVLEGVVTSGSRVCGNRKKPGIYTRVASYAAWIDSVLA
- ASSAY_EXPLANATION: SPR MX96
Conceptually, pKd converts a concentration in mol/L into minus its log10.

INSERT INTO measurements (binder, measured_number) VALUES
  ('KCD044 (antibody, V domains shown, chimeric) VH: EVQLQQSGAELVKPGASVRLSCTASGFNIKHTYMHWVSQRPERGLEWIGKIDPANGNTKYDPKFQGKATITADTSSNTVYLQLSSLTSEDTAVYYCLNAMEYWGQGTSVTVSS VL: QSVLTQSPAIMSASPGEKVTMTCSANSSVSDMYWYQQRPGSSPRLLIYDTSNLASGVPVRFSGSGSGTSYSLTISRMEAEDAATYYCQQWSTYPWTFGGGTKLEIK', 8.59);

# input Which pKd is listed for KCD039 (antibody, V domains shown) VH: EVQLQQSGPEMVKPGASMKISCKASGYSFADYTLNWVKQSHGKSLEWIGLINPYNGGTSYNQKFMGKATLTVDKSSSTAYMELLSLTSEDSAVYYCTRWGTYSHNYDYAMDYWGQGTSVTVSS VL: DVVMTQTPLSLSVSLGDQASISCRSSQSLVHSNGNTYLYWYLQKPGQSPKLLIYKVSNRFSGITDRFSGSGSGTDFTLKISRVEAEDLGVYFCSQSTHVPPFTFGSGTKLEIK ?
# output 7.28
